# maps each entry to its Mean % WT Binding
biological target: human CD33 I47V (human, UniProt P20138 18-364); test: flow cytometry, mutant on cells, IgG
Sequence (P20138 18-364 I47V limits assumed): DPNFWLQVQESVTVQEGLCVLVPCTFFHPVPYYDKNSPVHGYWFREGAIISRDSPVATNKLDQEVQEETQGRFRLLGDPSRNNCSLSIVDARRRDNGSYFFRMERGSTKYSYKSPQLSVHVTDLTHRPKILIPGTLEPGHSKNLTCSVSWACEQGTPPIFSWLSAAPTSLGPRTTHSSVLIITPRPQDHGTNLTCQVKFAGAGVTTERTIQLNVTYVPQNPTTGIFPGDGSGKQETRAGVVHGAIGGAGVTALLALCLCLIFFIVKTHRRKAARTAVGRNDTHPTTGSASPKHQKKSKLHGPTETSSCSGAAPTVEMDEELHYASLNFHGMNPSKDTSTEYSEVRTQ
Give me the value, and tack the unit on after it.

Use these answered entries as a reference point.
Refmab #3 (antibody, human IgG1, V domains shown, Tested in IgG format; human IgG1 Fc silent (PG-LALA)) VH: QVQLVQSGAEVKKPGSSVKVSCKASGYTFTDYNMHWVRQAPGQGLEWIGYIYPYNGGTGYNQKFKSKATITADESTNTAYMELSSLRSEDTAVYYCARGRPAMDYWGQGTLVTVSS VL: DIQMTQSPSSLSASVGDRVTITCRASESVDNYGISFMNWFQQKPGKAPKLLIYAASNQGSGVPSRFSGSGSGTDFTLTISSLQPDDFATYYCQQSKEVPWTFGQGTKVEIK; 100 % WT binding
Refmab #4 (antibody, human IgG1, V domains shown, Tested in IgG format; human IgG1 Fc silent (PG-LALA)) VH: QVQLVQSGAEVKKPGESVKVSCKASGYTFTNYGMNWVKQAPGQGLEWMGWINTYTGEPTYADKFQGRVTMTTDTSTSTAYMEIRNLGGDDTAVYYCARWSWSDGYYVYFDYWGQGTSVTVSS VL: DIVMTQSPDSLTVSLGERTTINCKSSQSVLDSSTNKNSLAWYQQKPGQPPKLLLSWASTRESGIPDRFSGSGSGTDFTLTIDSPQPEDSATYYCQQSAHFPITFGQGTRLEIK; 99 % WT binding

Input: Entry under review: Refmab #2 (antibody, human IgG1, V domains shown, Tested in IgG format; human IgG1 Fc silent (PG-LALA)) VH: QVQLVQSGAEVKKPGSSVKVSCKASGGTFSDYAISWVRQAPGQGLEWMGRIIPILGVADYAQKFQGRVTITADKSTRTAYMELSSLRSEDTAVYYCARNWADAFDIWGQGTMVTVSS VL: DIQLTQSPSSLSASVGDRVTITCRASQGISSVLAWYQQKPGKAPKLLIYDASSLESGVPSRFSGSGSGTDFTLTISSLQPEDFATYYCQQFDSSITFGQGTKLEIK . Reported Mean % WT Binding?
Output: 97.2 % WT binding
